# Tested on: LNCaP tumor-bearing mice
# experimentNotes: Ex vivo biodistribution in LNCaP tumor-bearing mice
# Design: species or system mouse
# studyConditions: 1 h post-injection
Recorded Spleen uptake for the following compounds

{"columns": ["compound", "unitAnnotation", "Spleen uptake"],
 "data": [
  ["O=C([O-])CN1CCN(CC(=O)[O-])CCN(CC(=O)NCC2CCC(C(=O)NC(Cc3c4ccccc4cc4ccccc34)C(=O)NCCCCC(NC(=O)NC(COCC(=O)O)C(=O)O)C(=O)O)CC2)CCN(CC(=O)[O-])CC1.[68Ga+3] (centres unmarked) [[^68Ga]Ga-HTK03187]", "%ID/g", 0.17],
  ["COc1ccc(CCCC(=O)NCC(=O)N[C@@H](CCCCNC(=O)CN2CCN(CC(=O)[O-])CCN(CC(=O)[O-])CCN(CC(=O)[O-])CC2)C(=O)NC[C@H]2CC[C@H](C(=O)N[C@@H](Cc3c4ccccc4cc4ccccc34)C(=O)NCCCC[C@H](NC(=O)N[C@@H](COCC(=O)O)C(=O)O)C(=O)O)CC2)cc1.[177Lu+3] [[^177Lu]Lu-HTK04028]", "%ID/g", 1.53],
  ["COc1ccc(CCCC(=O)NCC(=O)N[C@@H](CCCCNC(=O)CN2CCN(CC(=O)[O-])CCN(CC(=O)[O-])CCN(CC(=O)[O-])CC2)C(=O)NC[C@H]2CC[C@H](C(=O)N[C@@H](Cc3c4ccccc4cc4ccccc34)C(=O)NCCCC[C@H](NC(=O)N[C@@H](CSCC(=O)O)C(=O)O)C(=O)O)CC2)cc1.[177Lu+3] [[^177Lu]Lu-HTK04048]", "%ID/g", 2.57],
  ["O=C([O-])CN1CCN(CC(=O)[O-])CCN(CC(=O)NCC2CCC(C(=O)NC(Cc3c4ccccc4cc4ccccc34)C(=O)NCCCCC(NC(=O)NC(CSCC(=O)O)C(=O)O)C(=O)O)CC2)CCN(CC(=O)[O-])CC1.[68Ga+3] (centres unmarked) [[^68Ga]Ga-HTK03177]", "%ID/g", 0.42],
  ["COc1ccc(CCCC(=O)NCC(=O)N[C@@H](CCCCNC(=O)CN2CCN(CC(=O)[O-])CCN(CC(=O)[O-])CCN(CC(=O)[O-])CC2)C(=O)NC[C@H]2CC[C@H](C(=O)N[C@@H](Cc3c4ccccc4cc4ccccc34)C(=O)NCCCC[C@H](NC(=O)N[C@@H](CCCC(=O)O)C(=O)O)C(=O)O)CC2)cc1.[177Lu+3] [[^177Lu]Lu-HTK03170]", "%ID/g", 1.64]
]}

---

# systemTested: PSMA (Homo sapiens, UniProt Q04609)
# Construct: host or cells: LNCaP prostate cancer cells
# Sequence (Q04609 whole entry): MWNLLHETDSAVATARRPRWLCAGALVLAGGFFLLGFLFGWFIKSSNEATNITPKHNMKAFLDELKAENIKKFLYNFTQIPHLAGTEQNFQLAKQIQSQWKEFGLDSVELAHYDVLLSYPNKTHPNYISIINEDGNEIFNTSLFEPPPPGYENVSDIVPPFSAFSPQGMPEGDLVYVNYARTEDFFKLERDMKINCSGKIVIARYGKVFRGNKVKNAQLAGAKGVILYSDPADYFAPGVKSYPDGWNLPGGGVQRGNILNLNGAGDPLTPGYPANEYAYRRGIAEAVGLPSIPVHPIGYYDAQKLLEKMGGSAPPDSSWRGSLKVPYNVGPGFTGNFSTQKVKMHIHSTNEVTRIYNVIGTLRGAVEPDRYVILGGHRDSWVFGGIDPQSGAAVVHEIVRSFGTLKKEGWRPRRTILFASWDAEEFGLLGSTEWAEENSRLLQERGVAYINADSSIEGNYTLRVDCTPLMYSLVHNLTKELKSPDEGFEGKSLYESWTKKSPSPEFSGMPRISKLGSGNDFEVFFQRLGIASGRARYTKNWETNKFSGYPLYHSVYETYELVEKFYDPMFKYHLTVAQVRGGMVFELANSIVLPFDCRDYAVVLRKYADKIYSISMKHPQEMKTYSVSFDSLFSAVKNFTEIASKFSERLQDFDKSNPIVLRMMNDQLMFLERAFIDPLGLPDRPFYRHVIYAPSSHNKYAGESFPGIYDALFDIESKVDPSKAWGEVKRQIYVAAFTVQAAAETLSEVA
# experimentNotes: In vitro competition binding assay, LNCaP cells, [^18F]DCFPyL as radioligand

{"columns": ["molecule", "systemTested", "Ki [nM]"],
 "data": [
  ["O=C([O-])CN1CCN(CC(=O)[O-])CCN(CC(=O)NCC2CCC(C(=O)NC(Cc3c4ccccc4cc4ccccc34)C(=O)NCCCCC(NC(=O)NC(CSCC(=O)O)C(=O)O)C(=O)O)CC2)CCN(CC(=O)[O-])CC1.[Ga+3] (centres unmarked) [Ga-HTK03177]", "PSMA (Homo sapiens, UniProt Q04609)", 5],
  ["COc1ccc(CCCC(=O)NCC(=O)N[C@@H](CCCCNC(=O)CN2CCN(CC(=O)[O-])CCN(CC(=O)[O-])CCN(CC(=O)[O-])CC2)C(=O)NC[C@H]2CC[C@H](C(=O)N[C@@H](Cc3c4ccccc4cc4ccccc34)C(=O)NCCCC[C@H](NC(=O)N[C@@H](CSCC(=O)O)C(=O)O)C(=O)O)CC2)cc1.[Lu+3] [Lu-HTK04048]", "PSMA (Homo sapiens, UniProt Q04609)", 1.4],
  ["COc1ccc(CCCC(=O)NCC(=O)N[C@@H](CCCCNC(=O)CN2CCN(CC(=O)[O-])CCN(CC(=O)[O-])CCN(CC(=O)[O-])CC2)C(=O)NC[C@H]2CC[C@H](C(=O)N[C@@H](Cc3c4ccccc4cc4ccccc34)C(=O)NCCCC[C@H](NC(=O)N[C@@H](COCC(=O)O)C(=O)O)C(=O)O)CC2)cc1.[Lu+3] [Lu-HTK04028]", "PSMA (Homo sapiens, UniProt Q04609)", 13.9],
  ["O=C([O-])CN1CCN(CC(=O)[O-])CCN(CC(=O)NCC2CCC(C(=O)NC(Cc3c4ccccc4cc4ccccc34)C(=O)NCCCCC(NC(=O)NC(COCC(=O)O)C(=O)O)C(=O)O)CC2)CCN(CC(=O)[O-])CC1.[Ga+3] (centres unmarked) [Ga-HTK03187]", "PSMA (Homo sapiens, UniProt Q04609)", 10.6],
  ["COc1ccc(CCCC(=O)NCC(=O)N[C@@H](CCCCNC(=O)CN2CCN(CC(=O)[O-])CCN(CC(=O)[O-])CCN(CC(=O)[O-])CC2)C(=O)NC[C@H]2CC[C@H](C(=O)N[C@@H](Cc3c4ccccc4cc4ccccc34)C(=O)NCCCC[C@H](NC(=O)N[C@@H](CCCC(=O)O)C(=O)O)C(=O)O)CC2)cc1.[Lu+3] [Lu-HTK03170]", "PSMA (Homo sapiens, UniProt Q04609)", 1.6]
]}

---

# System: LNCaP tumor-bearing mice
# experimentNotes: Ex vivo biodistribution in LNCaP tumor-bearing mice
# Design: species or system mouse
# studyConditions: 1 h post-injection
experimentalEndpoint: Tumor:Kidney uptake ratio

{"columns": ["compound", "experimentalEndpoint", "numericReadout"],
 "data": [
  ["COc1ccc(CCCC(=O)NCC(=O)N[C@@H](CCCCNC(=O)CN2CCN(CC(=O)[O-])CCN(CC(=O)[O-])CCN(CC(=O)[O-])CC2)C(=O)NC[C@H]2CC[C@H](C(=O)N[C@@H](Cc3c4ccccc4cc4ccccc34)C(=O)NCCCC[C@H](NC(=O)N[C@@H](COCC(=O)O)C(=O)O)C(=O)O)CC2)cc1.[177Lu+3] [[^177Lu]Lu-HTK04028]", "Tumor:Kidney uptake ratio", 2.39],
  ["COc1ccc(CCCC(=O)NCC(=O)N[C@@H](CCCCNC(=O)CN2CCN(CC(=O)[O-])CCN(CC(=O)[O-])CCN(CC(=O)[O-])CC2)C(=O)NC[C@H]2CC[C@H](C(=O)N[C@@H](Cc3c4ccccc4cc4ccccc34)C(=O)NCCCC[C@H](NC(=O)N[C@@H](CCCC(=O)O)C(=O)O)C(=O)O)CC2)cc1.[177Lu+3] [[^177Lu]Lu-HTK03170]", "Tumor:Kidney uptake ratio", 2.07],
  ["O=C([O-])CN1CCN(CC(=O)[O-])CCN(CC(=O)NCC2CCC(C(=O)NC(Cc3c4ccccc4cc4ccccc34)C(=O)NCCCCC(NC(=O)NC(COCC(=O)O)C(=O)O)C(=O)O)CC2)CCN(CC(=O)[O-])CC1.[68Ga+3] (stereo not drawn) [[^68Ga]Ga-HTK03187]", "Tumor:Kidney uptake ratio", 7.67]
]}

---

# System: LNCaP tumor-bearing mice
# experimentNotes: Ex vivo biodistribution in LNCaP tumor-bearing mice
# Parameters: species or system mouse
# studyConditions: 1 h post-injection
Binarize Heart uptake at 4 %ID/g; below is criterion met, at or above is criterion not met.

{"columns": ["compound", "class"],
 "data": [
  ["COc1ccc(CCCC(=O)NCC(=O)N[C@@H](CCCCNC(=O)CN2CCN(CC(=O)[O-])CCN(CC(=O)[O-])CCN(CC(=O)[O-])CC2)C(=O)NC[C@H]2CC[C@H](C(=O)N[C@@H](Cc3c4ccccc4cc4ccccc34)C(=O)NCCCC[C@H](NC(=O)N[C@@H](COCC(=O)O)C(=O)O)C(=O)O)CC2)cc1.[177Lu+3] [[^177Lu]Lu-HTK04028]", "criterion not met"],
  ["COc1ccc(CCCC(=O)NCC(=O)N[C@@H](CCCCNC(=O)CN2CCN(CC(=O)[O-])CCN(CC(=O)[O-])CCN(CC(=O)[O-])CC2)C(=O)NC[C@H]2CC[C@H](C(=O)N[C@@H](Cc3c4ccccc4cc4ccccc34)C(=O)NCCCC[C@H](NC(=O)N[C@@H](CSCC(=O)O)C(=O)O)C(=O)O)CC2)cc1.[177Lu+3] [[^177Lu]Lu-HTK04048]", "criterion not met"],
  ["COc1ccc(CCCC(=O)NCC(=O)N[C@@H](CCCCNC(=O)CN2CCN(CC(=O)[O-])CCN(CC(=O)[O-])CCN(CC(=O)[O-])CC2)C(=O)NC[C@H]2CC[C@H](C(=O)N[C@@H](Cc3c4ccccc4cc4ccccc34)C(=O)NCCCC[C@H](NC(=O)N[C@@H](CCCC(=O)O)C(=O)O)C(=O)O)CC2)cc1.[177Lu+3] [[^177Lu]Lu-HTK03170]", "criterion met"],
  ["O=C([O-])CN1CCN(CC(=O)[O-])CCN(CC(=O)NCC2CCC(C(=O)NC(Cc3c4ccccc4cc4ccccc34)C(=O)NCCCCC(NC(=O)NC(COCC(=O)O)C(=O)O)C(=O)O)CC2)CCN(CC(=O)[O-])CC1.[68Ga+3] (centres unmarked) [[^68Ga]Ga-HTK03187]", "criterion met"],
  ["O=C([O-])CN1CCN(CC(=O)[O-])CCN(CC(=O)NCC2CCC(C(=O)NC(Cc3c4ccccc4cc4ccccc34)C(=O)NCCCCC(NC(=O)NC(CSCC(=O)O)C(=O)O)C(=O)O)CC2)CCN(CC(=O)[O-])CC1.[68Ga+3] (centres unmarked) [[^68Ga]Ga-HTK03177]", "criterion met"]
]}

Data credit: paper PMC10465233
